Reference source for all entries: ChEMBL document CHEMBL3870304

Dear all, this message contains IC50 results, target or system ALK tyrosine kinase receptor (Homo sapiens, UniProt Q9UM73).
Answer in nM, number only, no unit symbol.

CC(C)S(=O)(=O)c1ccccc1Nc1nc(N/N=C/c2cccc(C(F)(F)F)c2)ncc1Cl : 5.5

INPUT: Checklist item: IC50 tested on ALK tyrosine kinase receptor (Homo sapiens, UniProt Q9UM73), entry CC(C)S(=O)(=O)c1ccccc1Nc1nc(N/N=C/c2ccc(C(F)(F)F)cc2)ncc1Cl , value?
OUTPUT: 3.6
